Data origin: ChEMBL document CHEMBL6120987

- Target Under Test: Receptor-type tyrosine-protein kinase FLT3 (Homo sapiens, UniProt P36888, ITD)
- Sequence (P36888 whole entry, looked up, change not shown): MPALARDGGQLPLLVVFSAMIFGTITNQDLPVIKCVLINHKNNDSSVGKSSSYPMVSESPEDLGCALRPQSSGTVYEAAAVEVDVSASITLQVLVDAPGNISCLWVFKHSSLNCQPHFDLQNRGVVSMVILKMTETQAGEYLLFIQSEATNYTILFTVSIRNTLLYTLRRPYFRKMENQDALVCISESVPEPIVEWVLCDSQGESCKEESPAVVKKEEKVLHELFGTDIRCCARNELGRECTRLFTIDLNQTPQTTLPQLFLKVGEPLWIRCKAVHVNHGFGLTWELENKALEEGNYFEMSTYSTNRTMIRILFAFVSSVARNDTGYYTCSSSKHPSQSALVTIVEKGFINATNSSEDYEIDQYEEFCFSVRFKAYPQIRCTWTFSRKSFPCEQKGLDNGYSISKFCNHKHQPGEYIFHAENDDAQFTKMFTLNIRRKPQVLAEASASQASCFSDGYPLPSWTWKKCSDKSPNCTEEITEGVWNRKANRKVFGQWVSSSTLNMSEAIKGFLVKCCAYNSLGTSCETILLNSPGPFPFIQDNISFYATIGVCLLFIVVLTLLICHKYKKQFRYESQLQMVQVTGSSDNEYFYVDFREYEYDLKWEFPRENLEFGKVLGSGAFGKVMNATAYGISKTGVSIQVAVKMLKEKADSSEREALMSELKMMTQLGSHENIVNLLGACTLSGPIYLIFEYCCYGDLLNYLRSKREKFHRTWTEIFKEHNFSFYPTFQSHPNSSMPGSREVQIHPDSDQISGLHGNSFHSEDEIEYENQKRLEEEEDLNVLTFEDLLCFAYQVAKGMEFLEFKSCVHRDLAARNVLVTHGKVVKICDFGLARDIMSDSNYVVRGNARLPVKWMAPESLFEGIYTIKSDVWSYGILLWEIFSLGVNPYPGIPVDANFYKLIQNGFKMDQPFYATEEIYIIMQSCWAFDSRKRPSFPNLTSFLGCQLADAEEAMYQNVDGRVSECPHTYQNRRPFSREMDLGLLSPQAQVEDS
- Assay Info: Inhibition of FLT3-ITD mutant (unknown origin)
Experimental Endpoint: IC50 (nM)

CCCCCCCC/C=C\CCCCCCCC(=O)O 511
COc1cc(N)ccc1N1CCC(N2CCN(C(=O)OC(C)(C)C)CC2)CC1 511
CC(C)(C)OC(=O)N1CCNCC1 560
CCc1nc(C(N)=O)c(Nc2ccc(N3CCN(C(=O)OC(C)(C)C)CC3)c(OC)c2)nc1NC1CCOCC1 370

----------
- Tested on: MOLM-13
- Assay Info: Antiproliferative activity against FLT3-dependent human MOLM-13 cells expressing FLT3 ITD mutant assessed as reduction in cell viability incubated for 72 hrs by luminescence based assay
- Assay type: functional
- Measurement Conditions: MOLM-13, 72 h
pIC50: −log10 of the molar value.
Experimental Endpoint: pIC50

Compound	Reading
CCc1nc(C(N)=O)c(Nc2ccc(N3CCN(C(=O)C45CC6CC(CC(C6)C4)C5)CC3)c(OC)c2)nc1NC1CCOCC1	5.87
CCCCCCCC/C=C\CCCCCCCC(=O)NC1CCN(c2ccc(Nc3nc(NC4CCOCC4)c(CC)nc3C(N)=O)cc2OC)CC1	6.13
CCc1nc(C(N)=O)c(Nc2ccc(N3CCC(N4CCN(C(=O)C56C7C8C5C5C6C7C85C(=O)OC)CC4)CC3)c(OC)c2)nc1NC1CCOCC1 (stereo unspecified)	7.59
CCc1nc(C(N)=O)c(Nc2ccc(N3CCC(N4CCN(C(=O)C5CC6C=CC5C6)CC4)CC3)c(OC)c2)nc1NC1CCOCC1 (stereo unspecified)	7.26
CCc1nc(C(N)=O)c(Nc2ccc(N3CCC(N4CCN(C(=O)C56CC7CC(CC(C7)C5)C6)CC4)CC3)c(OC)c2)nc1NC1CCOCC1	6.72
CCc1nc(C(N)=O)c(Nc2ccc(N3CCC(NC(=O)C4c5ccccc5-c5ccccc54)CC3)c(OC)c2)nc1NC1CCOCC1	6.83
CCc1nc(C(N)=O)c(Nc2ccc(N3CCN(C(=O)C4c5ccccc5-c5ccccc54)CC3)c(OC)c2)nc1NC1CCOCC1	6.85
CCc1nc(C(N)=O)c(Nc2ccc(N3CCN(C(=O)C4CC5C=CC4C5)CC3)c(OC)c2)nc1NC1CCOCC1 (stereo unspecified)	7.20
CCc1nc(C(N)=O)c(Nc2ccc(N3CCC(N4CCN(C)CC4)CC3)c(OC)c2)nc1NC1CCOCC1	7.65
CCc1nc(C(N)=O)c(Nc2ccc(N3CCC(NC(=O)C4CC5C=CC4C5)CC3)c(OC)c2)nc1NC1CCOCC1 (stereo unspecified)	7.26
CCc1nc(C(N)=O)c(Nc2ccc(N3CCN(C(=O)C45C6C7C4C4C5C6C74C(=O)OC)CC3)c(OC)c2)nc1NC1CCOCC1 (stereo unspecified)	6.95
CCc1nc(C(N)=O)c(Nc2ccc(N3CCC(NC(=O)C45C6C7C4C4C5C6C74C(=O)OC)CC3)c(OC)c2)nc1NC1CCOCC1 (stereo unspecified)	7.06
CCc1nc(C(N)=O)c(Nc2ccc(N3CCC(NC(=O)C45CC6CC(CC(C6)C4)C5)CC3)c(OC)c2)nc1NC1CCOCC1	6.00
CCCCCCCC/C=C\CCCCCCCC(=O)N1CCN(c2ccc(Nc3nc(NC4CCOCC4)c(CC)nc3C(N)=O)cc2OC)CC1	5.61
CCc1nc(C(N)=O)c(Nc2ccc(N3CCC(N4CCN(C(=O)C5c6ccccc6-c6ccccc65)CC4)CC3)c(OC)c2)nc1NC1CCOCC1	6.81
